Readings of GI50 for the listed compounds
Test system: NCI-H23
ASSAY_DETAILS: NCI tumour cell line growth inhibition, 48 h
Activity calls are given as the source filed them. No stated cut-off is given here; in the data, active = GI50 up to about 1.1 µM and inactive = higher.
PARAMETER_MEASURED: GI50

N#Cc1ccccc1Sc1ccccc1N :: 67.8 µM (inactive)
CC(C)NC(NC(C)C)=C(S(=O)(=O)C(F)(F)C(F)(F)C(F)(F)C(F)(F)F)S(=O)(=O)C(F)(F)C(F)(F)C(F)(F)C(F)(F)F :: > 100 µM (inactive)
COc1cccc(C2c3cc4c(cc3OC(C)(N3CCCC3)C2C)OCO4)c1 (centres undefined) :: 20.5 µM (inactive)
CC(C)CC/N=c1/cc2n(-c3ccc(Cl)cc3)c3ccccc3nc-2cc1Nc1ccc(Cl)cc1 :: 3.43 µM (inactive)

###

Here, each record is paired with measured GI50 data.
System: MCF7
ASSAY_DETAILS: NCI tumour cell line growth inhibition, 48 h
Calls of active or inactive are those of the source. Rule as the data show it: active = GI50 up to about 1.1 µM and inactive = higher.
PARAMETER_MEASURED: GI50

O=C(Nc1ccc(I)cc1C(=O)NCCO)c1cccs1 :: > 100 µM (inactive)
CC(C)=CCC/C(C)=C/CC/C(C)=C/CCN(C)CCO :: 2.45 µM (inactive)
COc1c(N2CCCCC2)c2c(=O)c3ccccc3oc2c2cc(C)oc12 :: 16.7 µM (inactive)
COC(=O)NC1C(C)OC(OC2C/C=C(/C)C3C=CC4C(OC5CC(OC6CC(OC7CC(O)C(O)C(C)O7)C(OC7CC(O)C(OC)C(C)O7)C(C)O6)C(O)C(C)O5)C(C)CC(C)C4C3(C)C(=O)C3=C(O)C4(CC(C)C(CO)=CC4/C=C\2C)OC3=O)CC1(C)[N+](=O)[O-] (stereo not given) :: 11.7 µM (inactive)
CCOC(=O)Cc1ccc(Nc2nc3ccccc3nc2C(=O)OCC)cc1 :: 61.7 µM (inactive)

###

Tested on: NCI-H522
ASSAY_DETAILS: NCI tumour cell line growth inhibition, 48 h
Activity calls are given as the source filed them. No stated cut-off is given here; in the data, active = GI50 up to about 1.1 µM and inactive = higher.
Parameter GI50: see the listing below.
PARAMETER_MEASURED: GI50

Nc1ccc(/N=N/c2c(S(=O)(=O)O)cc3ccccc3c2S(=O)(=O)O)cc1 :: > 100 µM (inactive)
Clc1ccc(COC(Cn2ccnc2)c2ccc(Cl)cc2Cl)cc1 (stereo not drawn) [ECONAZOLE NITRATE] :: 8.24 µM (inactive)
O=C(O)c1cc(-c2ccccc2O)nc2ccccc12 :: > 100 µM (inactive)

###

Tested on: Hs-578T
ASSAY_DETAILS: NCI tumour cell line growth inhibition, 48 h
Active and inactive are the calls of the source. No stated cut-off is given here; in the data, active = GI50 up to about 1.1 µM and inactive = higher.
Outcome codes: TRUE for active, FALSE for inactive

CCCCCCCCCCCCCCCC(=O)OCC1OC(n2ccc(N)nc2=O)C(O)C1O (stereo not given) :: FALSE
O=C1/C(=C/c2cccc(Cl)c2)CCCc2ccccc21 :: FALSE
O=Cc1c(-c2ccccc2)nc2ccccc2c1O :: FALSE
COc1ccc2c(-c3ccc(OCCN(C)C)cc3)c(Oc3ccccc3)c(=O)oc2c1 :: FALSE
COc1cccc2c3ccccc3c3nc[nH]c3c12 :: TRUE

###

Parameter GI50: see the listing below.
System: DMS-114
ASSAY_DETAILS: NCI tumour cell line growth inhibition, 48 h
Calls of active or inactive are those of the source. Cut-off read from the data, not from the text of the source: active = GI50 up to about 1.1 µM and inactive = higher.
PARAMETER_MEASURED: GI50

Cn1c(N)c(-c2c3ccccc3nc3ccccc23)c(=O)n(C)c1=O :: > 100 µM (inactive)
Cc1ccc(S(=O)(=O)c2ccccn2)cc1 :: > 100 µM (inactive)
CCOC(=O)CC1NC(=O)CS1 (stereo unspecified) :: 25.1 µM (inactive)
CCOC(=O)CNc1nnnn1C1OC(CO)C(O)C1O (stereo unspecified) :: > 100 µM (inactive)
CC(=O)Oc1c(OC(C)=O)c(-c2ccc(O)c(O)c2)c(O)c(O)c1-c1ccc(O)cc1 :: 21.3 µM (inactive)
N[C@H](C(=O)O)[C@H](Cl)CC(=O)O :: > 100 µM (inactive)
CC(C)(C)NNC(=O)CCn1[nH]c(=O)c(Cl)c(Cl)c1=O :: > 100 µM (inactive)
Sc1nnc(COc2ccc(Cl)cc2)o1 :: > 100 µM (inactive)
COC(=O)N/N=C(\C)C(CN(C)C)C(c1ccccc1)c1c(O)c2ccccc2oc1=O (stereo unspecified) :: > 100 µM (inactive)
CCOC(=O)/C(=C/c1ccc(OC)cc1)N(CC)CC :: > 100 µM (inactive)
Cc1ccc(S(=O)(=O)n2cc(/C=C/C#N)c(/C=C/C#N)c2)cc1 :: 22.6 µM (inactive)

This collection of values is drawn from ChEMBL document CHEMBL1201862.
